# Measurement target: 229E mPRO (Human coronavirus 229E (HCoV-229E), UniProt P0C6X1)
# Sequence (P0C6X1 2966-3267 limits assumed): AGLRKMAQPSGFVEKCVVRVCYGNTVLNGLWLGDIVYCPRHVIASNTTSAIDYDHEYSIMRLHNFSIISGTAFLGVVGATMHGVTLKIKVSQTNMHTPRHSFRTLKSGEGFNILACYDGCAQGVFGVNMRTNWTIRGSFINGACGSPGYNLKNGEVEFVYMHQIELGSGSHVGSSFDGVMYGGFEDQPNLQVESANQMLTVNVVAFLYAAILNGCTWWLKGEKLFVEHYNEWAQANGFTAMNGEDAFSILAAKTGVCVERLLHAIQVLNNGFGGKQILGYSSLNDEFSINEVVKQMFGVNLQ
# Run description: 229E mPRO enzymatic assay
# Type: biochemical, Human Coronavirus (HCov) 229E
# Measurement parameters: read-out: 229E mPRO IC50
Measured metric: IC50

Worked set:
Compound	IC50
COc1cccc2[nH]c(C(=O)N3C[C@H](OC)C[C@H]3C(=O)N[C@H](C#N)C[C@@H]3CCNC3=O)cc12 [Compound 407]	< 22 µM
N#C[C@H](C[C@@H]1CCNC1=O)NC(=O)[C@@H]1CS[C@H]2CC[C@H](NC(=O)OCC3c4ccccc4-c4ccccc43)C(=O)N21 [Compound 477]	> 30 µM

For this compound ( COc1cccc2[nH]c(C(=O)N[C@@H](CC(C)C)C(=O)N[C@@H](C[C@@H]3CCNC3=O)C3OC(=O)N(c4ccccc4)C3=N)cc12 (stereo partly drawn) [Compound 359] ), measured IC50 is 10 to 30 µM

For this compound ( COc1cccc2[nH]c(C(=O)N3CC(C45CC(C4)C5)C[C@H]3C(=O)N[C@H](C#N)C[C@@H]3CCNC3=O)cc12 (single isomer, unassigned) [385 (Isomer 2)] ), measured IC50 is < 22 µM

For this compound ( COc1cccc2[nH]c(C(=O)N[C@@H](CC(C)C)C(=O)N[C@H](C#N)C[C@@H]3CCNC3=O)cc12 [Compound 101] ), measured IC50 is < 22 µM

For this compound ( N#C[C@H](C[C@@H]1CCNC1=O)NC(=O)[C@@H]1CS[C@H]2CC[C@H](N)C(=O)N21 [Compound 479] ), measured IC50 is 10 to 30 µM

---

# Measurement target: 229E mPRO (Human coronavirus 229E (HCoV-229E), UniProt P0C6X1)
# Run description: 229E mPRO enzymatic assay
# Format: biochemical, Human Coronavirus (HCov) 229E
# Measurement parameters: read-out: 229E mPRO IC50
Measured metric: IC50

Worked set:
Compound	Result
N#C[C@H](C[C@@H]1CCCNC1=O)NC(=O)[C@H](CC1CC1)NC(=O)c1cc2cccc(Cl)c2[nH]1 (single isomer, unassigned) [639 (Isomer 1)]	< 22 µM
COc1cccc2[nH]c(C(=O)N[C@@H](CC3CC3)C(=O)N[C@@]3(C#N)CC4CCC3[C@H]3C(=O)NC(=O)[C@@H]43)cc12 (single isomer, unassigned) [489 (Isomer 1)]	> 30 µM
COc1cccc2[nH]c(C(=O)N3C[C@H](C4CCCCC4)C[C@H]3C(=O)N[C@H](C#N)C[C@@H]3CCNC3=O)cc12	2 to 10 µM
COc1cccc2[nH]c(C(=O)N3C[C@H](OC(C)(C)C)C[C@H]3C(=O)N[C@H](C#N)C[C@@H]3CCNC3=O)cc12	> 30 µM
COc1cccc2[nH]c(C(=O)N[C@H](C(=O)N[C@H](C#N)C[C@@H]3CCNC3=O)C3Cc4ccccc4C3)cc12	2 to 10 µM

Next up:
For this compound ( COc1cccc2[nH]c(C(=O)N[C@@H](CC(C)C)C(=O)N[C@@H](C#N)Cc3cc(=O)[nH]c4ccccc34)cc12 (mixture of isomers) ), measured IC50 is > 30 µM

---

# Measurement target: SARS-COV2 Mpro (Severe acute respiratory syndrome coronavirus 2 (2019-nCoV) (SARS-CoV-2), UniProt P0DTD1)
Measured metric: IC50

Compound	Measured metric	Result
N#C[C@H](C[C@@H]1CCNC1=O)NC(=O)[C@H](CC1CC1)n1ccc2[nH]cnc2c1=O	IC50	> 30 µM
CC(C)(C)OC(=O)N1CCCCC12CCN([C@@H](CC1CC1)C(=O)N[C@H](C#N)C[C@@H]1CCNC1=O)C2=O (single isomer, unassigned) [473 (Isomer 2)]	IC50	> 30 µM
N#C[C@H](C[C@@H]1CCNC1=O)NC(=O)[C@@H]1CS[C@H]2CC[C@H](N)C(=O)N21	IC50	> 30 µM
COc1cccc2[nH]c(C(=O)N[C@@H](CC(C)C)C(=O)N[C@H](C#N)Cc3ccccn3)cc12	IC50	10 to 30 µM
N#C[C@H](C[C@@H]1CCNC1=O)NC(=O)[C@@H]1CCc2ccc(NCC(=O)O)c(=O)n21	IC50	> 30 µM

For this compound ( N#C[C@H](C[C@@H]1CCNC1=O)NC(=O)[C@@H]1CCc2ccc(NCC(=O)Oc3ccccc3)c(=O)n21 ), measured IC50 is > 30 µM

For this compound ( COc1cccc2[nH]c(C(=O)N[C@@H](CC(C)C)C(=O)N[C@H](C#N)Cc3cc[nH]n3)cc12 (mixture of isomers) ), measured IC50 is > 30 µM

For this compound ( COc1cccc2[nH]c(C(=O)N3CC4(CCC4)CC3C(=O)N[C@H](C#N)C[C@@H]3CCCNC3=O)cc12 (single isomer, unassigned) [719 (Isomer 2)] ), measured IC50 is < 22 µM
